target: USP28 (His-tagged USP28-FL-mammalian) (Homo sapiens, UniProt Q96RU2); construct: Expression of USP28 (1-1077)-TEV-6*His (pTT5 vector); made in house; host or cells: Expi293f cells (pTT5 vector); experiment: Ubiquitin-Rhodamine 110 Assay for USP28 Activity, Example A-1(a); format: biochemical; conditions: Ubiquitin-Rhodamine 110 assay, Example A-1(a); read-out: USP28 A-1(a) IC50 range
Endpoint: IC50

Worked set:
INSERT INTO assay_data (mol, reported) VALUES
  ('CO[C@H]1CN(c2cc3c(cc2F)C[C@@H](NC(=O)c2sc4nc(C)ccc4c2N)CO3)C[C@@H]1N', '1 to 50 nM'),
  ('Cc1ccc2c(N)c(C(=O)N[C@H]3COc4nc(N5C[C@@H](N)[C@H](C(F)F)C5)ccc4C3)sc2n1', '200 to 2000 nM'),
  ('O=C(N[C@H]1COc2cc(N3CCNCC3)ccc2C1)c1ccc(NCc2ccc3c(c2)OCCO3)nc1', '200 to 2000 nM');

Lab note: measured IC50 of CO[C@@H]1CN(c2cc(F)c3c(c2)OC[C@H](NC(=O)c2sc4nc(C)ccc4c2N)C3)C[C@H]1N was 1 to 50 nM

Lab note: measured IC50 of O=C(N[C@H]1COc2cc(N3CCNCC3)ccc2C1)c1cnc2c(c1)CC[C@@H]2O was 200 to 2000 nM

Lab note: measured IC50 of Cc1ccc2c(N)c(C(=O)N[C@H]3COc4cc(N5C[C@@H]6NCCC(F)(F)[C@@H]6C5)ccc4C3)sc2n1 was 1 to 50 nM

Lab note: measured IC50 of Cc1ccc2c(N)c(C(=O)N[C@H]3COc4cc(N5CC[C@]6(C5)OCC[C@H]6N)ccc4C3)sc2n1 was 1 to 50 nM

---

compounds and their reported pIC50
Molecular target: USP28 (His-tagged USP28-FL-mammalian) (Homo sapiens, UniProt Q96RU2)
Construct: Expression of USP28 (1-1077)-TEV-6*His (pTT5 vector); made in house; host or cells: Expi293f cells (pTT5 vector)
Sequence (Q96RU2 1-1077): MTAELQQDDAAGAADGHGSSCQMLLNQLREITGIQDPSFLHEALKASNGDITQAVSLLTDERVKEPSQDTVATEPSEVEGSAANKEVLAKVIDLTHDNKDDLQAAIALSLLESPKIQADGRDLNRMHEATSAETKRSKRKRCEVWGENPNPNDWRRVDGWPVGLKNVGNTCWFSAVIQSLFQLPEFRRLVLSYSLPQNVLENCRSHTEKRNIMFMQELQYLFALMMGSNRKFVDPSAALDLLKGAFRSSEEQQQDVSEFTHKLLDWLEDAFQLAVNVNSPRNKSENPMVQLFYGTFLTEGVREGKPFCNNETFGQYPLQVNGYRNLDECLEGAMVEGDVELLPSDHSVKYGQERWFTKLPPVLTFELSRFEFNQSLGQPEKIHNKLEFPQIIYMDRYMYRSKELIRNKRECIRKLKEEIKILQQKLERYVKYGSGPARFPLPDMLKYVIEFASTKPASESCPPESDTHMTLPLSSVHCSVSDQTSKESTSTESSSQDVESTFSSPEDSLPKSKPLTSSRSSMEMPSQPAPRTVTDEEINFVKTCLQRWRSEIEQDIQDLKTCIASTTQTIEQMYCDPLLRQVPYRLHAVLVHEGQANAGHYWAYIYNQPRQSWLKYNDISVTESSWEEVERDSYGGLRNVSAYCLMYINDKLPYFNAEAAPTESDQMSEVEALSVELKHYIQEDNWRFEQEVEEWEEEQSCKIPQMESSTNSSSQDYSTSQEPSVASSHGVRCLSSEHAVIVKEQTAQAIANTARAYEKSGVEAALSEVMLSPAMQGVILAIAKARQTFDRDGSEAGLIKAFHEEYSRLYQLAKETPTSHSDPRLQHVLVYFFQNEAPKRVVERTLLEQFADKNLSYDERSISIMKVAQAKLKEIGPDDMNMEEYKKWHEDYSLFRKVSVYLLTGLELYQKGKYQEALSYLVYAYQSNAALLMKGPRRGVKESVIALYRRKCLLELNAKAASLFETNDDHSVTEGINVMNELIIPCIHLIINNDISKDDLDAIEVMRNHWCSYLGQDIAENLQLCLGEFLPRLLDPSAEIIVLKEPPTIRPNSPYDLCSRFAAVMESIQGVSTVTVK
Assay: Ubiquitin-Rhodamine 110 Assay for USP28 Activity, Example A-1(a)
Format: biochemical
Conditions: Ubiquitin-Rhodamine 110 assay, Example A-1(a); read-out: USP28 A-1(a) IC50 range
pIC50: −log10 of the molar value.

Worked set:
INSERT INTO measurements (compound, experimental_target, endpoint, reported) VALUES
  ('Cc1cc(C)c2c(N)c(C(=O)N[C@H]3CCc4nc(N5C[C@H](OC(C)C)[C@@H](N)C5)ncc4C3)sc2n1 (single isomer, unassigned)', 'USP28 (His-tagged USP28-FL-mammalian) (Homo sapiens, UniProt Q96RU2)', 'pIC50', '6.70 to 7.30'),
  ('Cc1ccc2c(N)c(C(=O)N[C@H]3COc4cc(N5C[C@H](N)CC56COC6)ccc4C3)sc2n1 (single isomer, unassigned)', 'USP28 (His-tagged USP28-FL-mammalian) (Homo sapiens, UniProt Q96RU2)', 'pIC50', '7.30 to 9.00'),
  ('CO[C@H]1CN(c2ccc3c(n2)CC[C@H](NC(=O)c2sc4nc(C)cnc4c2N)C3)C[C@@H]1NC(C)=O', 'USP28 (His-tagged USP28-FL-mammalian) (Homo sapiens, UniProt Q96RU2)', 'pIC50', '5.70 to 6.70'),
  ('CO[C@@H]1CN(c2ccc3c(c2)OC[C@H](NC(=O)c2sc4nc(C)ccc4c2N)C3)C[C@@H]1N', 'USP28 (His-tagged USP28-FL-mammalian) (Homo sapiens, UniProt Q96RU2)', 'pIC50', '7.30 to 9.00'),
  ('Cc1ccc2c(N)c(C(=O)N[C@H]3CCc4nc(N5C[C@H]6COC[C@@]6(N)C5)ccc4C3)sc2n1', 'USP28 (His-tagged USP28-FL-mammalian) (Homo sapiens, UniProt Q96RU2)', 'pIC50', '6.70 to 7.30');

Lab note: measured pIC50 of CO[C@H]1CCN(c2ccc3c(c2)OC[C@H](NC(=O)c2sc4nc(C)ccc4c2N)C3)C[C@@H]1N was 6.70 to 7.30

Lab note: measured pIC50 of Cc1ccc2c(N)c(C(=O)N[C@H]3COc4cc(N5CC[C@@H]6CC[C@@H](N)C[C@@H]65)ccc4C3)sc2n1 was 7.30 to 9.00

---

molecular target: USP28 (His-tagged USP28-FL-mammalian) (Homo sapiens, UniProt Q96RU2); construct: Expression of USP28 (1-1077)-TEV-6*His (pTT5 vector); made in house; host or cells: Expi293f cells (pTT5 vector); assay: Ubiquitin-Rhodamine 110 Assay for USP28 Activity, Example A-1(a); assay type: biochemical; conditions: Ubiquitin-Rhodamine 110 assay, format Example A-1(a); read-out: USP28 A-1(a) IC50 range
Endpoint: IC50

INSERT INTO assay_data (compound, endpoint, reported) VALUES
  ('CO[C@H]1CN(c2ccc3c(n2)CC[C@H](NC(=O)c2sc4nc(C)cc(C)c4c2N)C3)C[C@@H]1N [Example 23-3]', 'IC50', '50 to 200 nM'),
  ('Cc1ccc2c(N)c(C(=O)N[C@@H]3CCc4c(ccc(N5CCNCC5)c4F)C3)sc2n1 (single isomer, unassigned) [Example 21-5]', 'IC50', '1 to 50 nM');

Lab note: measured IC50 of Cc1ccc2c(N)c(C(=O)N[C@@H]3CCc4cc(N5CC6CCC(C5)N6)c(C#N)cc4C3)sc2n1 (single isomer, unassigned) [Example 14-3] was 200 to 2000 nM

---

compounds and their reported IC50
Molecular target: USP25 (USP25-His6, Boston Biochem E-546) (Homo sapiens, UniProt Q9UHP3)
Construct: His6; purchased Boston Biochem E-546
Sequence (Q9UHP3 1-1055): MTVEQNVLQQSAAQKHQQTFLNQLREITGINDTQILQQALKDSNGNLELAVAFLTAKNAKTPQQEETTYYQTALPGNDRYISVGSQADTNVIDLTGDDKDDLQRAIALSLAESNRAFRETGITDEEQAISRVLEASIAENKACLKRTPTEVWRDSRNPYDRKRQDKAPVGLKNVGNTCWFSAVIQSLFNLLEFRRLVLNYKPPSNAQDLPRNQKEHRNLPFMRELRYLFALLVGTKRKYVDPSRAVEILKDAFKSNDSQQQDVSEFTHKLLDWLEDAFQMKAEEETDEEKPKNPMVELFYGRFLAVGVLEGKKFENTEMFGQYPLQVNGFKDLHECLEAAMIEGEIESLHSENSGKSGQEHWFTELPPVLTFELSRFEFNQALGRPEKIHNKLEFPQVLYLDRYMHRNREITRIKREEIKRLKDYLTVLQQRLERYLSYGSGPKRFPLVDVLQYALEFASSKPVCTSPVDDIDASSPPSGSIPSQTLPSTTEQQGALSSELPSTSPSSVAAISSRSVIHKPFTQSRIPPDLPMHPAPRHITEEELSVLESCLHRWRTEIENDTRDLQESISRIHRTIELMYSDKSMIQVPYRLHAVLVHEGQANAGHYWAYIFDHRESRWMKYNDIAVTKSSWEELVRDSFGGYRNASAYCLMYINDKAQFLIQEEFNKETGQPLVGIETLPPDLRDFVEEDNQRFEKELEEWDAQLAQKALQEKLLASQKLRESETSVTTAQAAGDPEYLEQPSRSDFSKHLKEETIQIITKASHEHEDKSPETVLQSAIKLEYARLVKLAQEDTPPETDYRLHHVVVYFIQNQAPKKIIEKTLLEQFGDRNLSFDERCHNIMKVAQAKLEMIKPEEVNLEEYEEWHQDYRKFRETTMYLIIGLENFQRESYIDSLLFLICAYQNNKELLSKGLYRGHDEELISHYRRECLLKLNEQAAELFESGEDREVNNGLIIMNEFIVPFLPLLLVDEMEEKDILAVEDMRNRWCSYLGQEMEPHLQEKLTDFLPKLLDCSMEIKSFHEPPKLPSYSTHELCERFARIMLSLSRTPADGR
Assay: Ubiquitin-Rhodamine 110 Assay for USP25 Activity, Example A-2
Format: biochemical
Settings: Ubiquitin-Rhodamine 110 assay, Example A-2; read-out: USP25 A-2 IC50 range
Protocol: The assay was performed in a final volume of 9 μL in assay buffer containing 20 mM Tris-HCl (pH 8.0, (1M Tris-HCl, pH 8.0 solution; Corning 46-031-CM)), 3 mM BME (2-Mercaptoethanol; Sigma 63689-25ML-F), 0.03% BGG (0.22 μM filtered, Sigma, G7516-25G), and 0.01% Triton X-100 (Sigma, T9284-10L). […] Fluorescence was read on the Envision (Excitation at 485 nm and Emission at 535 nm; Perkin Elmer) or on the PheraSTAR (Excitation at 485 nm and Emission at 535 nm; BMG Labtech). […]

INSERT INTO measurements (compound, reported) VALUES
  ('Cc1ccc2c(N)c(C(=O)N[C@H]3COc4cc(N5C[C@@H](N)[C@H](OC(F)(F)F)C5)ccc4C3)sc2n1 (single isomer, unassigned)', '0.2 to 2 µM'),
  ('Cc1ccc2c(N)c(C(=O)N[C@H]3COc4cc(N5CCC6(CNC6)C5)ccc4C3)sc2n1', '0.2 to 2 µM');

Lab note: measured IC50 of COc1ccc2c(N)c(C(=O)N[C@H]3CCc4cc(N5CC6CCC(C5)N6)ccc4C3)sc2n1 (single isomer, unassigned) was 0.2 to 2 µM
